Just for reference, the supplement of paper PMC4022240 is where these values come from.

Target: T1, HaloTag-ATRX ADD domain (163-292)
T1 chain: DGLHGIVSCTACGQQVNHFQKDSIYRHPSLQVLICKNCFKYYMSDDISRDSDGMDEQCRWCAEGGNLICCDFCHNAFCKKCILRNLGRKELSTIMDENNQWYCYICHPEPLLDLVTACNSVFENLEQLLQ
Experiment: peptide microarray binding signal (635 nm), min-max normalized on array (fraction of array maximum); higher = stronger binding
Conditions: peptide region: Unmod H4 variant; binder concentration: 500 nM

# binder, peptide microarray binding signal
records = [
    ("GKGGAKRHRKVLR [Unmod H4 variant G K G G A K R H R K V L R]", 0.0113),
    ("GVLKVFLENVIRD [Unmod H4 variant G V L K V F L E N V I R D]", 0.00281),
    ("SGRGKGGKGLGKG [Unmod H4 variant S G R G K G G K G L G K G]", 0.009),
    ("KRHRKVLRDNIQG [Unmod H4 variant K R H R K V L R D N I Q G]", 0.0147),
    ("IRDAVTYTEHAKR [Unmod H4 variant I R D A V T Y T E H A K R]", 0.0711),
]
